Molecular target: T1, interleukin-23 receptor (IL-23R), Q5VWK5
T1 chain: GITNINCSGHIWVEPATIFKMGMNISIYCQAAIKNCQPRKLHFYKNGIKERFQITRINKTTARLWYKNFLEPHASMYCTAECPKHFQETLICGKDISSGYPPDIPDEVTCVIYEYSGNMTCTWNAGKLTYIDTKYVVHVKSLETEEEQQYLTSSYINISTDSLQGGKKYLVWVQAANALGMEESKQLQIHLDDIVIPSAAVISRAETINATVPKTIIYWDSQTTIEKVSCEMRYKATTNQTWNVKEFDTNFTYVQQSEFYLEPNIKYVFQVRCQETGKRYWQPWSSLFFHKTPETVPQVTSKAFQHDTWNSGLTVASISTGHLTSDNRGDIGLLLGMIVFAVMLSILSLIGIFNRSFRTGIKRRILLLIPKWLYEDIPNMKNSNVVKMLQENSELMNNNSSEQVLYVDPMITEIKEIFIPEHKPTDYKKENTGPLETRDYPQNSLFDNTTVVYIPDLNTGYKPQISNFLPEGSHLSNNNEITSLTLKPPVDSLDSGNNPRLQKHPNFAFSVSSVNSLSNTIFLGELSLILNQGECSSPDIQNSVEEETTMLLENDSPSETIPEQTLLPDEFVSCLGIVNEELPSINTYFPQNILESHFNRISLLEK
Test: cell-based or functional assay
Non-standard residues stand in square brackets, D forms with d. No end group written: not given here. *: point of attachment. 2Nal(6-OH) = N[C@@H](Cc1ccc2cc(O)ccc2c1)C(=O)O; Trp(7-Me) = Cc1cccc2c(C[C@H](N)C(=O)O)c[nH]c12; AEF = NCCOc1ccc(C[C@H](N)C(=O)O)cc1; 3Pal = N[C@@H](Cc1cccnc1)C(=O)O; Pen = CC(C)(S)[C@H](N)C(=O)O; Thp = NC1(C(=O)O)CCOCC1; Abu = CC[C@H](N)C(=O)O; Propionyl = CCC(=O)*; Sar = CNCC(=O)O

[
  {
    "binder": "R[Pen]NT[Trp(7-Me)]K(Ac)[Pen][2‑amino‑3‑(4-(2-aminoethoxy)phenyl)propanoic acid][2‑amino‑3‑(6-hydroxynaphthalen-2-yl)propanoic acid][Thp]ENA[Sar] (not fully specified (bridges); ends and bridges not checked) [SEQ ID NO: 429]",
    "IL23R Reporter Assay IC50": "> 0.1 µM"
  },
  {
    "binder": "[dK](Propionyl)[Abu]NTWQC[AEF][2Nal(6-OH)][Thp]CN[3Pal][Sar] (ends and bridges not checked) [SEQ ID NO: 10]",
    "IL23R Reporter Assay IC50": "< 0.01 µM"
  }
]
